Catalogue of log10 of Ki values
- SYSTEM_NAME: human GPR139 receptor (Homo sapiens, UniProt Q6DWJ6)
- Construct: expressed in transfected cells; host or cells: T-REx-CHO (Thermo Fisher Scientific), doxycycline-induced
- Sequence (Q6DWJ6 whole entry): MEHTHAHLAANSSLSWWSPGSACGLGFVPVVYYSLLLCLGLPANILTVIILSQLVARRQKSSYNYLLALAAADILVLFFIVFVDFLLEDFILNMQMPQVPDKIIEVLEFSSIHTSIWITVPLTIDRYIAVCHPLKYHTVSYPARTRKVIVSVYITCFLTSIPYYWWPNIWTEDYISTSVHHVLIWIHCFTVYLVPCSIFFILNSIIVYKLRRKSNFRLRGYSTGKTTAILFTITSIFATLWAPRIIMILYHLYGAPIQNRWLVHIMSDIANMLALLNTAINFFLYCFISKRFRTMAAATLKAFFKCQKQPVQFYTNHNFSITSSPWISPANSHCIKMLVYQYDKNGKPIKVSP
- TEST_SUMMARY: GPR139 Competition Binding (membrane-based, tritium-labeled ligand)
- COND: T-REx-CHO membranes with human GPR139; 6.5 nM tritium-labeled ligand; 11-point curve, 30 μM maximum concentration; read-out: GPR139 Binding Affinity (pKi) (converted)
EXPERIMENTAL_READOUT: log10 of Ki (log10 of the value in nM)

- COMPOUND: "Cc1nn(C2CC2)c2cnn(CC(=O)N[C@@H](C)c3cccc(F)c3)c(=O)c12"
  SYSTEM_NAME: "human GPR139 receptor (Homo sapiens, UniProt Q6DWJ6)"
  log10 of Ki: 2.79
- COMPOUND: "Cc1nn(C2CC2)c2cnn(CC(=O)N[C@@H](C)c3c(F)cccc3Cl)c(=O)c12"
  SYSTEM_NAME: "human GPR139 receptor (Homo sapiens, UniProt Q6DWJ6)"
  log10 of Ki: 1.91
- COMPOUND: "Cc1nn(C2CC2)c2c(=O)n(CC(=O)N[C@@H](C)c3ccc(C(F)(F)F)cn3)ncc12"
  SYSTEM_NAME: "human GPR139 receptor (Homo sapiens, UniProt Q6DWJ6)"
  log10 of Ki: 3.13
- COMPOUND: "Cc1nn(C2CC2)c2cnn(CC(=O)N[C@@H](C)c3ccc(C(F)(F)F)cc3)c(=O)c12"
  SYSTEM_NAME: "human GPR139 receptor (Homo sapiens, UniProt Q6DWJ6)"
  log10 of Ki: 2.39
- COMPOUND: "COc1ccc([C@H](C)NC(=O)Cn2nc(C)c3c(c(C)nn3C)c2=O)cc1"
  SYSTEM_NAME: "human GPR139 receptor (Homo sapiens, UniProt Q6DWJ6)"
  log10 of Ki: 3.16
- COMPOUND: "Cc1nn(C2CC2)c2cnn(CC(=O)NC(C)c3ccc4c(c3)CCCO4)c(=O)c12 (centres unmarked)"
  SYSTEM_NAME: "human GPR139 receptor (Homo sapiens, UniProt Q6DWJ6)"
  log10 of Ki: 2.90
- COMPOUND: "Cc1nn(C2CC2)c2cnn(CC(=O)N[C@@H](C)c3c(F)cc(F)cc3F)c(=O)c12"
  SYSTEM_NAME: "human GPR139 receptor (Homo sapiens, UniProt Q6DWJ6)"
  log10 of Ki: 2.50
- COMPOUND: "Cc1nn(C(C)C)c2cnn(CC(=O)N[C@@H](C)c3ccc(OC(F)(F)F)cc3)c(=O)c12"
  SYSTEM_NAME: "human GPR139 receptor (Homo sapiens, UniProt Q6DWJ6)"
  log10 of Ki: 2.59
